Reported values of pest or weed control at 400 µg/mL for individual entries
# System: Pyricularia oryzae (rice blast)
# Test method notes: whole plant or invertebrate
# Type: in vivo
# Study conditions: Pyricularia oryzae, foliar, read-out: PYRIOR disease control, host rice; foliar spray; 400 ppm (+++: 100 ppm)

Given the entry N#Cc1ccc(Oc2ccc(CCOc3ncnc4ccccc34)cc2)nc1 [Compound 21] , report its measured pest or weed control at 400 µg/mL.
20 to 89%

Given the entry Fc1cccc2c(OCCc3ccc(Oc4cccc(C(F)(F)F)n4)cc3)ncnc12 [Compound 36] , report its measured pest or weed control at 400 µg/mL.
90 to 100%

Given the entry Fc1cc(C(F)(F)F)cnc1Oc1ccc(CCOc2ncnc3cccc(F)c23)cc1 [Compound 7] , report its measured pest or weed control at 400 µg/mL.
0 to 19%

Given the entry c1ccc2c(OCCc3ccc(Oc4cnccn4)cc3)ncnc2c1 [Compound 51] , report its measured pest or weed control at 400 µg/mL.
90 to 100%

Given the entry Fc1cccc2ncnc(OCCc3ccc(Oc4nc(Cl)c(Cl)cc4Cl)cc3)c12 [Compound 43] , report its measured pest or weed control at 400 µg/mL.
0 to 19%

Given the entry FC(F)(F)c1ccc(Oc2ccc(CCNc3ncnc4ccccc34)cc2)nc1 [Compound 29] , report its measured pest or weed control at 400 µg/mL.
90 to 100%

Given the entry Fc1cc(C(F)(F)F)cnc1Oc1ccc(CCOc2ncnc3c(F)cccc23)cc1 [Compound 5] , report its measured pest or weed control at 400 µg/mL.
90 to 100%

Given the entry Fc1cc(C(F)(F)F)cnc1Oc1ccc(CCNc2ncnc3c(F)cccc23)cc1 [Compound 6] , report its measured pest or weed control at 400 µg/mL.
90 to 100%

***
Given the entry Fc1cccc2c(OCCc3ccc(Oc4ccc(C(F)(F)F)cn4)cc3)ncnc12 [Compound 27] , report its measured pest or weed control at 400 µg/mL.
90 to 100%

Given the entry Clc1ccc(Oc2ccc(CCOc3ncnc4ccccc34)cc2)nn1 [Compound 49] , report its measured pest or weed control at 400 µg/mL.
0 to 19%

Given the entry N#Cc1cccnc1Oc1ccc(CCOc2ncnc3cccc(F)c23)cc1 [Compound 4] , report its measured pest or weed control at 400 µg/mL.
0 to 19%

====

# System: Leptosphaeria nodorum (glume blotch)
# Test method notes: Foliar spray fungicide test, Leptosphaeria nodorum (glume blotch) on wheat
# Study conditions: Parastagonospora nodorum, in Triticum aestivum, foliar, read-out: LETPNO disease control, host wheat, 400 ppm (+++: 100 ppm)
Reported values of pest or weed control at 400 µg/mL for individual entries

Below, 3 molecules whose answers are already recorded.
Given the entry N#Cc1cccnc1Oc1ccc(CCOc2ncnc3cccc(F)c23)cc1 , report its measured pest or weed control at 400 µg/mL.
0 to 19%

Given the entry Fc1cccc2c(OCCc3ccc(Oc4ncc(Cl)cc4Cl)cc3)ncnc12 , report its measured pest or weed control at 400 µg/mL.
20 to 89%

Given the entry Fc1cccc2c(OCCc3ccc(Oc4ccc(Cl)cn4)cc3)ncnc12 , report its measured pest or weed control at 400 µg/mL.
20 to 89%

***
Given the entry FC(F)(F)c1cnc(Oc2ccc(CCNc3ncnc4cccnc34)cc2)c(Cl)c1 , report its measured pest or weed control at 400 µg/mL.
20 to 89%

Given the entry Fc1cccc2c(OCCc3ccc(Oc4cc(C(F)(F)F)ccn4)cc3)ncnc12 , report its measured pest or weed control at 400 µg/mL.
20 to 89%

Given the entry Fc1cccc2c(NCCc3ccc(Oc4cccc(C(F)(F)F)n4)cc3)ccnc12 , report its measured pest or weed control at 400 µg/mL.
20 to 89%

Given the entry Fc1cccc2c(NCCc3ccc(Oc4ncc(C(F)(F)F)cc4Cl)cc3)ncnc12 , report its measured pest or weed control at 400 µg/mL.
90 to 100%

Given the entry O=[N+]([O-])c1ccc(Oc2ccc(CCOc3ncnc4c(F)cccc34)cc2)nc1 , report its measured pest or weed control at 400 µg/mL.
20 to 89%

Given the entry O=[N+]([O-])c1cccnc1Oc1ccc(CCOc2ncnc3cccc(F)c23)cc1 , report its measured pest or weed control at 400 µg/mL.
0 to 19%

This collection of values is drawn from patent US5326766A.
